These data points were gathered from patent USRE47150.

The following binders are listed with their measured variant/HC_D62R values.
Molecular target: T1, human tissue factor pathway inhibitor (TFPI) (human, UniProt P10646 29-304, limits assumed)
T1 construct: bought; also called hTFPI; human TFPI
T1 sequence (looked up): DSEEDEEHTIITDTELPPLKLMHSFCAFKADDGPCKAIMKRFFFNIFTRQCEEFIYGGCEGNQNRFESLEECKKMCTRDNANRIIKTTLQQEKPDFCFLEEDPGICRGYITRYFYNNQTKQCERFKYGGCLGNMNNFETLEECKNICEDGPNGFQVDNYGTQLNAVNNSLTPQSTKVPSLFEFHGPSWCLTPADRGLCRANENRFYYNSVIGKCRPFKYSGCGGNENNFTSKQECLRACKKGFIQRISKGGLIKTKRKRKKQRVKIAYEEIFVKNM
Assay: competitive ELISA
measured_property: variant/HC_D62R (ratio)

4B7 HC N32D+D62R+Y112D/LC D33R+N35I (Fab, V domains shown) VH: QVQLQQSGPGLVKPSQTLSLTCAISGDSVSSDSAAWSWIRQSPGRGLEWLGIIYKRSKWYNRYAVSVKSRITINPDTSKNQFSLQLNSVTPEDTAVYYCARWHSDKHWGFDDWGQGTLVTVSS VL: DIVMTQSPLSLPVTPGEPASISCRSSQSLVFSRGITYLNWYLQKPGQSPQLLIYKGSNRASGVPDRFSGSGSGTDFTLKISRVEAEDVGVYYCQQYDSYPLTFGQGTKVEIKR | 22.9
4B7 HC N32D+D62R+Y112D/LC S32R+D33F+N35I+T36N+D97T (Fab, V domains shown) VH: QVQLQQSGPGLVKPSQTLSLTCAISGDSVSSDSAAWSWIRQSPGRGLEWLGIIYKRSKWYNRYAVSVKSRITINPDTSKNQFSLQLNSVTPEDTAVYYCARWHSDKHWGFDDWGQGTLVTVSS VL: DIVMTQSPLSLPVTPGEPASISCRSSQSLVFRFGINYLNWYLQKPGQSPQLLIYKGSNRASGVPDRFSGSGSGTDFTLKISRVEAEDVGVYYCQQYTSYPLTFGQGTKVEIKR | 25.2
4B7 HC N32D+D62Q+H107M+Y112D/LC F31M+S32R+D33F+N35I+D97T (Fab, V domains shown) VH: QVQLQQSGPGLVKPSQTLSLTCAISGDSVSSDSAAWSWIRQSPGRGLEWLGIIYKRSKWYNQYAVSVKSRITINPDTSKNQFSLQLNSVTPEDTAVYYCARWHSDKMWGFDDWGQGTLVTVSS VL: DIVMTQSPLSLPVTPGEPASISCRSSQSLVMRFGITYLNWYLQKPGQSPQLLIYKGSNRASGVPDRFSGSGSGTDFTLKISRVEAEDVGVYYCQQYTSYPLTFGQGTKVEIKR | 19
